Data provenance: ChEMBL document CHEMBL1130378

Assign log10(MIC) to each entry below.
test system: Candida albicans; assay: Minimum inhibitory concentration for prevention of visible growth of Candida albicans; type: functional
Annotation: log10 of MIC, µg/mL basis.

# Structure, log10(MIC)
measured = [
    ("O=C(COc1ccccc1)N[C@@H]1C(=O)N2C(C(=O)O)=C(COC(=O)c3cccc(C(=O)c4cc(Cl)cc(C(=O)c5ccccc5O)c4O)c3O)CS[C@H]12", 0.81),
    ("COC(=O)c1cccc(C(=O)c2cc(Cl)cc(C(=O)c3ccccc3O)c2O)c1O", 2.10),
    ("O=C(COc1ccccc1)N[C@@H]1C(=O)N2C(C(=O)O)=C(COC(=O)c3cccc(Cc4cc(Cl)cc(Cc5ccccc5O)c4O)c3O)CS[C@H]12", 0.77),
    ("CNC(=O)c1cccc(Cc2cc(Cl)cc(Cc3ccccc3O)c2O)c1O", 2.06),
    ("O=C(O)c1cccc(C(=O)c2cc(Cl)cc(C(=O)c3cccc(C(=O)O)c3O)c2O)c1O", 1.28),
    ("CC(=O)OCC1=C(C(=O)O)N2C(=O)[C@@H](NC(=O)c3cccc(Cc4cc(Cl)cc(Cc5ccccc5O)c4O)c3O)[C@H]2SC1", 1.45),
]

Proceed to the following item.
stdin: Could you tell me which log10(MIC) is on file for Oc1ccc(Br)cc1Cc1cc(Cl)cc(Cc2cc(Br)ccc2O)c1O ?
stdout: 2.06

----------
system: Candida albicans; test: Minimum inhibitory concentration for prevention of visible growth of Candida albicans; assay type: functional
Assign log10(MIC) to each entry below.
Annotation: log10 of MIC, µg/mL basis.

# Structure, Experimental Result
measured = [
    ("CC(=O)OCC1=C(C(=O)O)N2C(=O)[C@@H](NC(=O)c3cccc(C(=O)c4cc(Cl)cc(C(=O)c5ccccc5O)c4O)c3O)[C@H]2SC1", 1.15),
    ("Oc1ccccc1Cc1cc(Cl)cc(Cc2ccccc2O)c1O", 0.31),
]

# return log10(MIC) for each item in the list
1. O=C(O)c1cccc(Cc2cc(Cl)cc(Cc3ccccc3O)c2O)c1O
2. COC(=O)c1cccc(Cc2cc(Cl)cc(Cc3ccccc3O)c2O)c1O
3. O=C(O)c1cccc(Cc2cc(Cl)cc(Cc3cccc(C(=O)O)c3O)c2O)c1O
4. O=C(O)c1cccc(C(=O)c2cc(Cl)cc(C(=O)c3ccccc3O)c2O)c1O
5. CNC(=O)c1cccc(C(=O)c2cc(Cl)cc(C(=O)c3ccccc3O)c2O)c1O

stdout:
1. 0.16
2. 2.07
3. 1.22
4. 0.57
5. 2.08

----------
target: Beta-lactamase (Pseudomonas aeruginosa (strain ATCC 15692 / PAO1 / 1C / PRS 101 / LMG12228)); assay: Minimum protective concentration against beta-lactamase Pseudomonas aeruginosa (18S-H strain); assay type: functional
Endpoint Label: MPC (µg/mL)
One number for each entry, in µg/mL.

Example cases with answers are listed next.
# Compound, MPC [µg/mL]
rows = [
    ("O=C(COc1ccccc1)N[C@@H]1C(=O)N2C(C(=O)O)=C(COC(=O)c3cccc(C(=O)c4cc(Cl)cc(C(=O)c5ccccc5O)c4O)c3O)CS[C@H]12", 5.98),
    ("O=C(O)[C@H]1/C(=C/CO)O[C@@H]2CC(=O)N21", 3),
    ("CC(=O)OCC1=C(C(=O)O)N2C(=O)[C@@H](NC(=O)COc3ccccc3)[C@H]2SC1", 0.97),
]

# return MPC for each item in the list
1. CC(=O)OCC1=C(C(=O)O)N2C(=O)[C@@H](NC(=O)c3cccc(C(=O)c4cc(Cl)cc(C(=O)c5ccccc5O)c4O)c3O)[C@H]2SC1
2. CC(=O)OCC1=C(C(=O)O)N2C(=O)[C@@H](NC(=O)c3cccc(Cc4cc(Cl)cc(Cc5ccccc5O)c4O)c3O)[C@H]2SC1
3. O=C(COc1ccccc1)N[C@@H]1C(=O)N2C(C(=O)O)=C(COC(=O)c3cccc(Cc4cc(Cl)cc(Cc5ccccc5O)c4O)c3O)CS[C@H]12
4. CO/N=C(\C(=O)N[C@@H]1C(=O)N2C(C(=O)O)=C(COC(C)=O)CS[C@H]12)c1csc(N)n1 [CEFOTAXIME]

stdout:
1. 93.5
2. 99.8
3. 6.74
4. 1.03

----------
target: Beta-lactamase (Staphylococcus aureus); assay: Minimum protective concentration against beta-lactamase in Staphylococcus aureus (95 strain); assay type: functional
Assign log10 of MPC to each entry below.
Annotation: log10 of MPC, µg/mL basis.

# Structure, Measurement Target, Experimental Result
measured = [
    ("CC(=O)OCC1=C(C(=O)O)N2C(=O)[C@@H](NC(=O)c3cccc(Cc4cc(Cl)cc(Cc5ccccc5O)c4O)c3O)[C@H]2SC1", "Beta-lactamase (Staphylococcus aureus)", 1.98),
    ("O=C(COc1ccccc1)N[C@@H]1C(=O)N2C(C(=O)O)=C(COC(=O)c3cccc(C(=O)c4cc(Cl)cc(C(=O)c5ccccc5O)c4O)c3O)CS[C@H]12", "Beta-lactamase (Staphylococcus aureus)", 0.68),
    ("O=C(COc1ccccc1)N[C@@H]1C(=O)N2C(C(=O)O)=C(COC(=O)c3cccc(Cc4cc(Cl)cc(Cc5ccccc5O)c4O)c3O)CS[C@H]12", "Beta-lactamase (Staphylococcus aureus)", 0.85),
    ("CC(=O)OCC1=C(C(=O)O)N2C(=O)[C@@H](NC(=O)COc3ccccc3)[C@H]2SC1", "Beta-lactamase (Staphylococcus aureus)", 0.13),
    ("O=C(O)[C@H]1/C(=C/CO)O[C@@H]2CC(=O)N21", "Beta-lactamase (Staphylococcus aureus)", -0.42),
]

# return log10 of MPC for each item in the list
1. CC(=O)OCC1=C(C(=O)O)N2C(=O)[C@@H](NC(=O)c3cccc(C(=O)c4cc(Cl)cc(C(=O)c5ccccc5O)c4O)c3O)[C@H]2SC1
2. CO/N=C(\C(=O)N[C@@H]1C(=O)N2C(C(=O)O)=C(COC(C)=O)CS[C@H]12)c1csc(N)n1

stdout:
[1.95, 0.43]

----------
Assign MIC to each entry below.
tested on: Candida albicans; test: Minimum inhibitory concentration for prevention of visible growth of Candida albicans; type: functional

Example cases with answers are listed next.
# Structure, Measurement Target, MIC
records = [
    ("CO/N=C(\\C(=O)N[C@@H]1C(=O)N2C(C(=O)O)=C(COC(C)=O)CS[C@H]12)c1csc(N)n1", "Candida albicans", "> 145 µg/mL"),
    ("CC(=O)Oc1ccc(Br)cc1Cc1cc(Cl)cc(Cc2cc(Br)ccc2OC(C)=O)c1OC(C)=O", "Candida albicans", "> 145 µg/mL"),
]

Proceed to the following item.
stdin: Could you tell me which MIC is on file for Oc1ccccc1Cc1cccc(Cc2ccccc2O)c1O ?
stdout: > 145 µg/mL
